Each entry below carries its recorded half-life.
- procedureSummary: Mouse pharmacokinetic study
- Format: in vivo
- cond: female, mouse, plasma; BALB/c mice, PO, 10 mg/kg, 0.5% MC
readoutKind: half-life (min)

                          structurenotation  experimentalvalue
0  O=C(C1CN(Cc2cc(C(F)(F)F)c(=O)[nH]n2)C1)N1CCN(c2ncc(C(F)(F)F)cn2)CC1               58.8
1  O=c1[nH]nc(CN[C@H]2C[C@H](C(=O)N3CCN(c4ncc(C(F)(F)F)cn4)CC3)C2)cc1C(F)(F)F               48.6

* * *

- procedureSummary: Mouse pharmacokinetic study
- Type: in vivo
- cond: female, mouse, plasma; BALB/c mice, IV, 1 mg/kg
We begin with a simple list: items and their reported half-life.
readoutKind: half-life (h)

>>> print(df.to_string())
                          structurenotation  readoutkind  experimentalvalue
0  O=C(C1CN(Cc2cc(C(F)(F)F)c(=O)[nH]n2)C1)N1CCN(c2ncc(C(F)(F)F)cn2)CC1    half-life               1.28
1  O=c1[nH]nc(CN[C@H]2C[C@H](C(=O)N3CCN(c4ncc(C(F)(F)F)cn4)CC3)C2)cc1C(F)(F)F    half-life               0.89
